test system: Staphylococcus aureus; test: Antibacterial activity against methicillin-resistant Staphylococcus aureus ATCC 43300 after 24 hrs by broth microdilution method; assay type: functional; conditions: ATCC 43300, 24 h
measured property: MIC

>>> recorded_result("Clc1cccc(COc2cccc(Cn3cncn3)c2)c1")
"> 64 µg/mL"
>>> recorded_result("CCCCC(CC)COc1cccc(-c2cnnn2C)c1 (stereo not given)")
"> 64 µg/mL"
>>> recorded_result("CCCCC(CC)COc1cccc(-c2n[nH]c(=O)o2)c1 (racemic)")
"8 µg/mL"
>>> recorded_result("Fc1ccc(OCc2nc3cc(Cl)cnc3s2)c(F)c1-c1c[nH]nn1")
"> 64 µg/mL"
>>> recorded_result("Fc1ccc(OCc2nc(-c3ccc(Cl)cc3)c(Br)o2)c(F)c1-c1c[nH]nn1")
"> 64 µg/mL"
>>> recorded_result("CCCCC(CC)COc1cccc(Cn2cnnn2)c1 (racemic)")
"> 64 µg/mL"
>>> recorded_result("CCCCC(CC)COc1cccc(-c2c[nH]nn2)c1 (racemic)")
"4 µg/mL"
>>> recorded_result("CCCCC(CC)COc1ccc(-c2c[nH]nn2)cc1 (stereo not given)")
"4 µg/mL"
>>> recorded_result("CCCCC(CC)COc1ccc(F)c(C(N)=O)c1F (stereo not given)")
"2 to 4 µg/mL"
>>> recorded_result("CCOc1cccc(-c2c[nH]nn2)c1")
"> 64 µg/mL"
>>> recorded_result("Cc1ccc(COc2ccc(F)c(-c3c[nH]nn3)c2F)cc1")
"16 µg/mL"
>>> recorded_result("NC(=O)c1c(F)ccc(OCC2COc3ccc(Cl)cc3O2)c1F (stereo not given)")
"0.5 µg/mL"
>>> recorded_result("Clc1ccc(COc2cccc(Cn3cncn3)c2)cc1")
"> 64 µg/mL"
>>> recorded_result("CCCCCCCCOc1cccc(-c2c[nH]nn2)c1")
"4 µg/mL"
>>> recorded_result("NC(=O)c1c(F)ccc(OCc2nc3cc(Cl)cnc3s2)c1F")
"1 µg/mL"
>>> recorded_result("CCCCC(CC)COc1cccc(-c2ncno2)c1 (racemic)")
"> 64 µg/mL"
>>> recorded_result("Fc1ccc(OCc2ccc(Cl)cc2)c(F)c1-c1c[nH]nn1")
"> 64 µg/mL"
>>> recorded_result("Cc1cccc(COc2cccc(Cn3cncn3)c2)c1")
"> 64 µg/mL"
>>> recorded_result("Cc1ccc(COc2cccc(Cn3cncn3)c2)cc1")
"> 64 µg/mL"
>>> recorded_result("Fc1cccc(COc2ccc(F)c(-c3c[nH]nn3)c2F)c1")
"> 64 µg/mL"
>>> recorded_result("Clc1ccc(COc2cccc(-c3c[nH]nn3)c2)cc1")
"> 64 µg/mL"
>>> recorded_result("Cc1cccc(COc2ccc(F)c(-c3c[nH]nn3)c2F)c1")
"16 µg/mL"
>>> recorded_result("O=c1[nH]nc(-c2cccc(OCc3ccccc3)c2)o1")
"> 64 µg/mL"
>>> recorded_result("Clc1ccc(OCCCCOc2cccc(-c3c[nH]nn3)c2)cc1")
"> 64 µg/mL"
>>> recorded_result("CCCCC(CC)COc1cccc(Cn2cncn2)c1 (racemic)")
"32 µg/mL"

Origin of measurements: ChEMBL document CHEMBL4184277
